Biological target: immunoproteasome LMP2 subunit (Homo sapiens)
Assay: Caliper-based proteasome enzymatic activity assay, LMP2
Details: human recombinant immunoproteasome 0.3 nM, FAM peptide substrate 1 μM, rt 2 h
pIC50: −log10 of the molar value.
Parameter Measured: pIC50

1: CC(C)(C)NC(=O)C(C#N)=Cc1cccc(OCCC(=O)N[C@@H](Cc2coc3ccccc23)B(O)O)c1
2: Cc1ccc(C[C@H](NC(=O)CCOc2cccc(C=C(C#N)c3ccccn3)c2)B(O)O)c(C)c1
3: N#CC(=Cc1cccc(CCOC(=O)N[C@@H](Cc2ccccc2)B(O)O)c1)c1ccc(C#N)cn1
query: From the records above, write out the order of decreasing pIC50. Put the labels in the requested order and write them down.
result: 3, 2, 1
(3: 6.16, 2: 5.90, 1: 5.49)
